B1: ACSBG2 (parent)
chain: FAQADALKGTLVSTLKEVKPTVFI

# Variants of: B1
# TEST METHOD NOTES: protein stability index of a GFP-peptide fusion (GPS, HEK-293T) (PSI 1-6); higher = more stable;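 also: lentivirally expressed fusions sorted by FACS into six bins by GFP to DsRed ratio, PSI derived from sequencing read proportions per bin multiplied by bin number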
# EXPERIMENTAL PARAMETERS: c terminus: a fixed tail appended
Please note: fulfilled applies when protein stability index is 2 or greater, and not fulfilled applies otherwise.

MUTATION ID | ASSIGNED CATEGORY
G9I | fulfilled

Ask: Does the variant "T21P" have recorded protein stability index that is 2 or more?
Result: not fulfilled

Ask: Does the variant "F1E" have recorded protein stability index that is 2 or more?
Result: fulfilled

Ask: Does the variant "I24G" have recorded protein stability index that is 2 or more?
Result: fulfilled

Ask: Does the variant "V18M" have recorded protein stability index that is 2 or more?
Result: not fulfilled

Ask: Does the variant "Q3D" have recorded protein stability index that is 2 or more?
Result: not fulfilled

Ask: Does the variant "K19N" have recorded protein stability index that is 2 or more?
Result: not fulfilled
